experiment: Selectivity index, ratio of IC50 for BALB/c mouse macrophages to IC50 for Leishmania amazonensis MHOM/BR/76/LTB-012
PARAMETER MEASURED: Ratio IC50

- ENTRY SMILES: "O=[N+]([O-])c1ccc(/C=N/Nc2ncnc3sc4c(c23)CCCC4)cc1"
  PARAMETER MEASURED: "Ratio IC50"
  ENDPOINT RESULT: 5.2
- ENTRY SMILES: "C=CCOc1cc(/C=N/Nc2ncnc3sc4c(c23)CCCC4)cc(OCC=C)c1Br"
  PARAMETER MEASURED: "Ratio IC50"
  ENDPOINT RESULT: 0.7
- ENTRY SMILES: "COc1cccc(/C=N/Nc2ncnc3sc4c(c23)CCCC4)c1"
  PARAMETER MEASURED: "Ratio IC50"
  ENDPOINT RESULT: 0.5
- ENTRY SMILES: "FC(F)(F)c1ccc(/C=N/Nc2ncnc3sc4c(c23)CCCC4)cc1"
  PARAMETER MEASURED: "Ratio IC50"
  ENDPOINT RESULT: 4.1
- ENTRY SMILES: "FC(F)(F)c1ccccc1/C=N/Nc1ncnc2sc3c(c12)CCCC3"
  PARAMETER MEASURED: "Ratio IC50"
  ENDPOINT RESULT: 2.6
- ENTRY SMILES: "C(=N\\Nc1ncnc2sc3c(c12)CCCC3)/c1ccc2c(c1)OCO2"
  PARAMETER MEASURED: "Ratio IC50"
  ENDPOINT RESULT: 0.6
